target: mMOR-1 (Mus musculus), P42866; assay: competition; details: modification not given
Sequence (P42866 whole entry): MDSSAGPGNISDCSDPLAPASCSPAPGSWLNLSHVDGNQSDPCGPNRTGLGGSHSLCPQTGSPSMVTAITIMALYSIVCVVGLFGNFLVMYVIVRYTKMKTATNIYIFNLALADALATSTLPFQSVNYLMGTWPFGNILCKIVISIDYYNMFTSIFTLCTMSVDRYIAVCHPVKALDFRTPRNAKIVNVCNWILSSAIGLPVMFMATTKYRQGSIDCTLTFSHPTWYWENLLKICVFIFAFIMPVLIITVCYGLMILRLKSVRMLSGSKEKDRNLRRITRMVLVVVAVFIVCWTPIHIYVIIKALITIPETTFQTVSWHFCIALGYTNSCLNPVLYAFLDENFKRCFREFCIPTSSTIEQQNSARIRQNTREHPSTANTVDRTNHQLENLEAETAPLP
Measured Metric: pKi
Numbers only, as −log10 of the molar value.

Query: Identify the reported pKi for the following entry. YAFGYPS [Dermorphin]
Result: 8.40
